Where do the numbers come from? From paper PMC9482650.

- target: T1, SNTG1, Q9NSN8
- T1 sequence (Q9NSN8 52-150, limits assumed, looked up): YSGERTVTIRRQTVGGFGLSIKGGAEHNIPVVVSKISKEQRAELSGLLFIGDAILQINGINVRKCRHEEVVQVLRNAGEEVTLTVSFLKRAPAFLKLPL
- test summary: holdup assay
- Parameters: key: below the threshold = too weak to quantify, mostly under pKd 3.1 to 4
- test settings: plain residues with an end cap or a label only (N-terminal biotin on a linker: ado-ado)
assay readout: pKd

Some binders with recorded pKd:
Qu. // returns reported pKd for input QSGLYESEEL [MYOT, Q9UBF9]
Ans. below the threshold

Qu. // returns reported pKd for input EDPRVEVTQF [SLC22A9, Q8IVM8]
Ans. below the threshold

Qu. // returns reported pKd for input PSHPRLQTHV [KIRREL2, Q6UWL6]
Ans. below the threshold

Qu. // returns reported pKd for input QLSFNTDTLC [ABCA2, Q9BZC7]
Ans. below the threshold

Qu. // returns reported pKd for input NNNVVKVDSV [MTNR1A, P48039]
Ans. below the threshold

Next:
Qu. // returns reported pKd for input VKRNSKETVV [MARCHF3, Q86UD3]
Ans. 4.13

Qu. // returns reported pKd for input PSVGSKKTVL [REELD1, A0A1B0GV85]
Ans. below the threshold

Qu. // returns reported pKd for input NISYRRESAI [KCNJ4, P48050]
Ans. below the threshold

Qu. // returns reported pKd for input SFISKKEWYV [NECTIN1, Q15223]
Ans. 3.51

Qu. // returns reported pKd for input NTLNRKTTPV [CACNG8, Q8WXS5]
Ans. below the threshold
